B1: Caulobacter ParB omega fusion; a variant is named by its letters at X, in order, B8GW30 (parent)
chain: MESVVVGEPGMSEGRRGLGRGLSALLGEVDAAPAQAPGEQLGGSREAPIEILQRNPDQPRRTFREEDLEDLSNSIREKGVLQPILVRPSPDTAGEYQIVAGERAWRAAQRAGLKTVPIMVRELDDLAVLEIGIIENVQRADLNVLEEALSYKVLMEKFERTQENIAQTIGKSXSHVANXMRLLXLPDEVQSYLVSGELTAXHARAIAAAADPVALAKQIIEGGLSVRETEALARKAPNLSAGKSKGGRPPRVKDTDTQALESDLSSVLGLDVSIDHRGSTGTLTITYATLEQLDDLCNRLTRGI

variants of: B1; assay: one-hybrid fitness for binding parS DNA (scaled: cognate 1, non-cognate 0); higher = stronger binding; details: with parS DNA site
Whole data set: some 81,000 sequences, median “one-hybrid fitness for binding parS DNA” near -0.17, cut for the highest 2% near 0.51. The sample as a whole holds a higher share of the highest values than the screen did.
recorded endpoint: one-hybrid fitness for binding parS DNA

The cases that follow already have their one-hybrid fitness for binding parS DNA on record.
>>> print(df.to_string())
   residue_change  result
0            NMTN   ≤ 0.2
1            RYAN   0.387

Task item: Tell me measured one-hybrid fitness for binding parS DNA for RNVY please.
Reply: ≤ 0.2

Task item: Fill in one-hybrid fitness for binding parS DNA for record SKDT
Reply: ≤ 0.2

Task item: Please list one-hybrid fitness for binding parS DNA recorded for the variant RYFD
Reply: ≤ 0.2

Task item: Give the reported one-hybrid fitness for binding parS DNA for this variant. RYAD
Reply: ≤ 0.2
